The measurements presented in this section are drawn from patent US8338473B2.

system_under_test: human recombinant SIRT1 (Homo sapiens)
Sequence (Q96EB6 whole entry): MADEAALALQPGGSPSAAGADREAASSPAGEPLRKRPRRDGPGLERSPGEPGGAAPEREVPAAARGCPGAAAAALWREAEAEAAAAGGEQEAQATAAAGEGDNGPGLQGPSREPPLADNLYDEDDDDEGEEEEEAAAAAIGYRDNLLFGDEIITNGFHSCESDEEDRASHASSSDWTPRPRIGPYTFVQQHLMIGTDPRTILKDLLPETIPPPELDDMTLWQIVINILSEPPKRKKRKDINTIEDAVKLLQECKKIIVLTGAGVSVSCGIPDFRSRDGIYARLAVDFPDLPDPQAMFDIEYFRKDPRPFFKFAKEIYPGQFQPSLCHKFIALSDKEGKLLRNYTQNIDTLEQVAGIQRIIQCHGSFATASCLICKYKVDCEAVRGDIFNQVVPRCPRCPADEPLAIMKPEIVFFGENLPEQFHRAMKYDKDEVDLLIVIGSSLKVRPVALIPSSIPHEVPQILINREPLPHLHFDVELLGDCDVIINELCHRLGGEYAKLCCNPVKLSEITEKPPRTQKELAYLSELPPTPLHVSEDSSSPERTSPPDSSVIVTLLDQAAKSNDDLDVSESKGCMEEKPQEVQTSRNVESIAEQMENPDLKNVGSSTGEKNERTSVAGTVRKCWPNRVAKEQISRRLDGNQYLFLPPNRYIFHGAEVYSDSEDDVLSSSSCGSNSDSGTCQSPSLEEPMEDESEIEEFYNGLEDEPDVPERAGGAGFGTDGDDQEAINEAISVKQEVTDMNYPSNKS
assay_comment: SIRT activity assay, SIRT1
pIC50: −log10 of the molar value.

chemical_structure | system_under_test | pIC50
O=C(NCCSSCCNC(=O)C(Cc1c[nH]c2ccc(Br)cc12)=NO)C(Cc1c[nH]c2ccc(Br)cc12)=NO | human recombinant SIRT1 (Homo sapiens) | 5.05

* * *

system_under_test: human recombinant SIRT2 (Homo sapiens)
Sequence (Q8IXJ6 whole entry): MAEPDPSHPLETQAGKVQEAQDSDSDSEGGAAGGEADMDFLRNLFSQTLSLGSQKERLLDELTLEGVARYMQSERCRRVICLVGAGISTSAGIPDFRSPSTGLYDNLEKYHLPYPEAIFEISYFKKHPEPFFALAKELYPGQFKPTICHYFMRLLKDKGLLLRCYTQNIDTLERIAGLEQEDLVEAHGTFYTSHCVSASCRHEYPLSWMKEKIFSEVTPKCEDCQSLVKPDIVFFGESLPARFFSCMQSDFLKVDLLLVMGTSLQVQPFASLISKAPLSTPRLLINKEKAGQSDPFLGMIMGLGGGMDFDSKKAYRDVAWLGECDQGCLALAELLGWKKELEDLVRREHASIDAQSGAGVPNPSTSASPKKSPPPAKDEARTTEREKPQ
assay_comment: SIRT activity assay, SIRT2
pIC50: −log10 of the molar value.

chemical_structure | pIC50
O=C(NCCSSCCNC(=O)C(Cc1c[nH]c2ccc(Br)cc12)=NO)C(Cc1c[nH]c2ccc(Br)cc12)=NO | 5.11
